target: Nuclear receptor subfamily 5 group A member 2 (Homo sapiens) (UniProt O00482); test: LRH-1 (NR5A2) inverse agonists, retest, confirmation, cell-based, luminescence (AID 651613); conditions: cell-based LRH-1 luciferase reporter, inverse agonism; at 3.6 µM;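 note: HEK293T cells co-transfected with LRH-1 and StAR promoter luciferase reporter; 0% = vehicle wells and 100% = parental cells lacking receptor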
Sequence (O00482 whole entry, looked up): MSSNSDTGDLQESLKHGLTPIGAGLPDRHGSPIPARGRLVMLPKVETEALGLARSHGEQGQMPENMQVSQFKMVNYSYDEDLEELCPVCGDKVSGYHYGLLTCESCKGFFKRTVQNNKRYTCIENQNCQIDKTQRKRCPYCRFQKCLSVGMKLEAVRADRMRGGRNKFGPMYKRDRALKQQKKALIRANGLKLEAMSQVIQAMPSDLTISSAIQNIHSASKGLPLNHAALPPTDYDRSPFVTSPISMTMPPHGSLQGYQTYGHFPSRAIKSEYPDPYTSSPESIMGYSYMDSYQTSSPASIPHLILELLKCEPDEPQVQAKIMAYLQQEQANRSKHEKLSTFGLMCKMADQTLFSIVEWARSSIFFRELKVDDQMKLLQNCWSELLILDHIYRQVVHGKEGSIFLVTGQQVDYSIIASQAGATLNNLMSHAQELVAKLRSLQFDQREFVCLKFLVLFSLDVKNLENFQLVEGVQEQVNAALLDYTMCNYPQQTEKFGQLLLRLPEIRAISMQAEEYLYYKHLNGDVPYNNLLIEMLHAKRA
Activity calls are given as the source filed them. Cut-off read from the data, not from the text of the source: active = inhibition above about 42%; inactive = the rest.
Labels: y for active, n for inactive

- Compound: "COc1cc(C(=O)NN=Cc2ccc(N(C)C)cc2)cc(OC)c1OC"
  Label class: "n"
- Compound: "C/C(=N\\Nc1nc(C)c(C)s1)c1ccc([N+](=O)[O-])cc1"
  Label class: "y"
- Compound: "Cc1cc(C)c(SCCc2ccncc2)c(C)c1"
  Label class: "y"
- Compound: "Cc1cnc(NC(=O)CCCc2nc3ccccc3s2)s1"
  Label class: "y"
- Compound: "Cc1ccc2ccc3ccc(C)nc3c2n1"
  Label class: "y"
- Compound: "Cc1c(NC(=O)c2ccc([N+](=O)[O-])o2)cccc1-c1nc2ncccc2o1"
  Label class: "y"
- Compound: "COc1cc(C(=O)NC2CCN(C)CC2)ccc1Nc1ncc2c(n1)N(CCc1ccccc1)CCC(=O)N2C"
  Label class: "y"
- Compound: "O=C(Nc1ccc(Cc2ccncc2)cc1)c1ccc([N+](=O)[O-])o1"
  Label class: "y"
- Compound: "CC(=O)Nc1ccc(NC(=O)COC(=O)c2cc(S(=O)(=O)N3CCCC3)ccc2O)cc1"
  Label class: "y"
- Compound: "NC1=C(Cl)C(=O)c2ccc(S(N)(=O)=O)cc2C1=O"
  Label class: "y"
- Compound: "CCCS(=O)(=O)c1cnc(C2COc3ccccc3O2)nc1N (centres undefined)"
  Label class: "n"
- Compound: "CCOc1cc2c(cc1OCC)C(c1ccc(OC)cc1)N(c1ccccc1)C(=O)C2 (centres undefined)"
  Label class: "n"
- Compound: "Cc1ccccc1Nc1nc(Cl)c(C=O)s1"
  Label class: "y"
- Compound: "COc1ccc(OCCNC(=O)C2(C)CCN2Cc2ccc(SC)cc2)cc1 (centres undefined)"
  Label class: "y"
- Compound: "c1ccc(-c2nn(-c3ccccc3)[n+](-c3ccccc3)n2)cc1"
  Label class: "y"
- Compound: "c1ccc(-c2nnc(-c3ccccn3)nc2NC2CCCCC2)cc1"
  Label class: "y"
- Compound: "CCC(C)NC(=O)c1ccc2c(c1)N(Cc1ccccc1)C(=O)CS2 (centres undefined)"
  Label class: "y"
- Compound: "O=C(Nc1c(F)cccc1F)c1cnc(N2CCN(c3ccccn3)CC2)c2ccccc12"
  Label class: "n"
- Compound: "COc1ccc(S(=O)(=O)N2CCOCC2)cc1NC(=O)CCNC(=O)c1ccc([N+](=O)[O-])cc1"
  Label class: "y"
- Compound: "O=C(N/N=C/c1ccc([N+](=O)[O-])o1)c1ccccc1-n1cccc1"
  Label class: "y"
- Compound: "Cc1nc2cc(N3CCCCC3)c(NC(=O)c3cccnc3)cc2c(=O)n1Cc1ccccc1"
  Label class: "y"
- Compound: "COc1ccc(-c2cc(NC=O)c3ncc(-c4ccc(C(C)=O)cc4)n3c2)cn1"
  Label class: "y"
- Compound: "CCN(CC)c1ccc(/C=N/NC(=O)c2cccc(S(=O)(=O)N3CCOCC3)c2)c(O)c1"
  Label class: "y"
- Compound: "C#CC(=O)N(c1ccc(OC)c(OC)c1)C(C(=O)NC1CCCC1)c1cccs1 (centres undefined)"
  Label class: "y"
- Compound: "CC(C)(C)c1ccc(C(=O)O/N=C(\\N)c2ccccn2)cc1"
  Label class: "y"
- Compound: "CNc1cccnc1C=NNC(N)=S"
  Label class: "y"
- Compound: "COc1cc(Cn2c3ccc(NC(=O)CCc4ccc(O)cc4)cc3c(=O)n2C)ccc1F"
  Label class: "y"
- Compound: "COc1cccc(C(C)(O)c2nc(-c3ccoc3)cs2)c1 (centres undefined)"
  Label class: "n"
- Compound: "COc1ccc(CCNC(=O)COC(=O)c2cccn2C)cc1"
  Label class: "y"
- Compound: "Cc1cc(OCC(=O)N2CCC(O)CC2)c2c(C)cc(=O)oc2c1"
  Label class: "y"
- Compound: "O=C(NCc1ccccc1)c1cccc(NC(=O)c2ccco2)c1"
  Label class: "y"
- Compound: "O=C(NCCCNc1ccc([N+](=O)[O-])cc1)C(F)(F)F"
  Label class: "y"
- Compound: "CCC1(OC(=O)CN(C)C)C(=O)OCc2c1cc1n(c2=O)Cc2cc3c(N)cccc3nc2-1 (centres undefined)"
  Label class: "y"
- Compound: "CCCc1cc(=O)oc2cc(C)cc(OCC(=O)NC3CC3)c12"
  Label class: "y"
- Compound: "CCn1c(SCC(=O)Nc2ccc(Cl)cc2)nnc1C1CC1"
  Label class: "y"
- Compound: "Cc1cc(C)c[n+](C(C)C(=O)c2ccc(-c3ccccc3)cc2)c1 (centres undefined)"
  Label class: "y"
- Compound: "NC(=S)NN=Cc1nccc2c(C(F)(F)F)cccc12"
  Label class: "y"
- Compound: "O=C(Cn1cnc2c(nnn2-c2ccccc2)c1=O)NCCc1ccccc1"
  Label class: "y"
- Compound: "C/C(CC1CC(C)(C)OC1=O)=N/Nc1nc(-c2ccccc2)cs1 (centres undefined)"
  Label class: "y"
- Compound: "CC1OC2CC(=O)OC2C2=C1C(=O)c1c(O)cccc1C2=O (centres undefined)"
  Label class: "y"
- Compound: "CCN(CC)c1ccc(/C=C/c2cccc[n+]2C)c(OC)c1"
  Label class: "y"
- Compound: "Cc1nc2ccc(NC(=O)c3cccs3)cc2c(=O)n1Cc1ccc(Cl)cc1"
  Label class: "y"
- Compound: "CC1C/C(=C/c2ccncc2)C(=O)/C(=C/c2ccncc2)C1 (centres undefined)"
  Label class: "y"
- Compound: "CC(=O)N1CCc2c(sc(NC(=O)CCS(=O)(=O)c3ccccc3)c2C#N)C1"
  Label class: "y"

---

test: VP16 transactivation inhibitors, counter-screen for SRC1 inhibitor project, cell-based, luminescence, high throughput (AID 588824); conditions: cell-based VP16 transactivation luciferase luminescence; at 3.6 µM; active compounds read high
Assign label 1 whenever inhibition does not fall below 50%; assign label 0 whenever it does.

- Compound: "O=C(NC1CCCCC1)C(c1ccc(F)cc1)N(CCCN1CCOCC1)C(=O)c1ccc(CN2CCOCC2)o1 (stereo not given)"
  Label class: "label 0"
- Compound: "O=C1CC2(CCCC2)CC(=O)N1CCCCN1CCN(c2ncccn2)CC1"
  Label class: "label 0"
- Compound: "COC(=O)c1cc(O)cc(OC)c1Oc1cc(C)cc(O)c1C(=O)O"
  Label class: "label 1"
- Compound: "O=C(CCc1ccccc1)NC(c1cccs1)c1cc(Cl)c2cccnc2c1O (stereo not given)"
  Label class: "label 0"
- Compound: "COc1ccc2cc3c(N)nn(C(=O)c4ccc(Cl)c([N+](=O)[O-])c4)c3nc2c1"
  Label class: "label 0"
- Compound: "O=C(Nc1ccc(Cn2cccn2)cc1)c1ccc(COc2cccc(Br)c2)cc1"
  Label class: "label 0"
- Compound: "COc1ccc([C@@]23Oc4cc(OC)cc(OC)c4[C@]2(O)[C@H](O)[C@H](C(=O)N(C)C)[C@H]3c2ccccc2)cc1"
  Label class: "label 1"
- Compound: "COc1ccc(-n2cc(-c3ccccc3)c3c(N4CCOCC4)ncnc32)cc1"
  Label class: "label 0"
- Compound: "c1cncc(CNC2CCCc3ccccc32)c1 (stereo not given)"
  Label class: "label 0"
- Compound: "O=C(NCc1cccs1)c1nc2c(nnn2Cc2ccccc2Cl)c(=O)[nH]1"
  Label class: "label 1"

---

test: StAR promoter reporter inhibitors, counter-screen for LRH-1 inverse agonist project, cell-based, luminescence, high throughput (AID 651611); conditions: StAR promoter luciferase reporter counterscreen, at 3.6 µM, active compounds read high

- Compound: "COc1ccc(N2CCN(C(=O)CN3C(=O)NC4(CCCCCC4)C3=O)CC2)cc1"
  inhibition [%]: 7.32
- Compound: "COc1ccc(-c2cc3ccccc3oc2=O)cc1NC(=O)c1ccc([N+](=O)[O-])o1"
  inhibition [%]: -51.4
- Compound: "CCCCC(=O)NC(c1ccccc1Cl)c1ccc2cccnc2c1O (stereo not drawn)"
  inhibition [%]: 74.1
- Compound: "CCCCCCCC/C=C\\CCCCCCCC(=O)NCCc1ccc(O)c(O)c1"
  inhibition [%]: -4.3
- Compound: "N#Cc1c(NC(=O)CSc2ncn[nH]2)sc2c1CCCCC2"
  inhibition [%]: 29.9
- Compound: "CCNC(=S)N1CCN(c2nc(CC)nc3sc4c(c23)CCCC4)CC1"
  inhibition [%]: 1.42
- Compound: "Cc1c(Cl)cccc1NC(=O)CSc1sc2c(O)cc(=O)[nH]c2c1C#N"
  inhibition [%]: -3.35
- Compound: "CCOc1ccc(CCNC(=O)COC(=O)Cc2c[nH]c3ccccc23)cc1OCC"
  inhibition [%]: 9.43
- Compound: "Cc1ccc(NC(=O)CSc2sc3c(O)cc(=O)[nH]c3c2C#N)c(F)c1"
  inhibition [%]: 7.65
- Compound: "CC(C)(C)c1ccc(Oc2ccc(NC(=O)C3CC=CCC3C(=O)O)cc2)cc1 (stereo not drawn)"
  inhibition [%]: 1.67
- Compound: "CSc1ccc(COC(=O)c2cc([N+](=O)[O-])ccc2N2CCOCC2)cc1"
  inhibition [%]: 61.7
- Compound: "CCOc1cc(CNc2ccc3c(c2)OCCO3)cc(Br)c1OC"
  inhibition [%]: 39.5
- Compound: "O=C(NCCCc1ccccc1)c1cc([N+](=O)[O-])ccc1Cl"
  inhibition [%]: 23.3
- Compound: "O=C(Nc1ccccc1Cl)c1ccc([N+](=O)[O-])o1"
  inhibition [%]: 29.4
- Compound: "Cc1cc(C(=O)Nc2ccc(Cl)cc2)c(C)n1-c1ccccc1"
  inhibition [%]: 70
- Compound: "CCCC(=O)Nc1ccc(C(=O)N/N=C/c2ccc([N+](=O)[O-])o2)cc1"
  inhibition [%]: 86.9
- Compound: "c1ccc(C2=Nn3c(nnc3-c3n[nH]c4c3CCC4)SC2)cc1"
  inhibition [%]: 47.6
- Compound: "Cc1cc(S(=O)(=O)NCc2ccncc2)c(C)cc1Br"
  inhibition [%]: -10.6
- Compound: "O=C(Nc1ccc(N2CCN(C(=O)c3ccccc3)CC2)cc1)c1ccc([N+](=O)[O-])o1"
  inhibition [%]: 22.4
- Compound: "COC(=O)c1ccc(NC(=O)CSc2nn3c(=O)c(C)nnc3s2)cc1"
  inhibition [%]: 5.82
- Compound: "CN(Cc1cnc2nc(N)nc(N)c2n1)c1ccc(C(=O)NC(CCC(=O)O)C(=O)O)cc1 (stereo not drawn)"
  inhibition [%]: 76.1
- Compound: "O=C(COC(=O)c1ccc[nH]c1=O)Nc1ccc(N2CCCCC2)cc1"
  inhibition [%]: 42.1
- Compound: "CCOC(=O)c1ccc(N=Cc2cnc(N)nc2N)cc1"
  inhibition [%]: -7.89
- Compound: "Nc1ccc(Oc2cccc(Oc3ccc(N)cc3)c2)cc1"
  inhibition [%]: 47.8
- Compound: "O=C1CCc2cc(OCCCCc3nnnn3C3CCCCC3)ccc2N1"
  inhibition [%]: 12.9
- Compound: "CCOc1ccc(-n2c(-c3ccc(Br)cc3)c[n+]3c2CCCCC3)cc1"
  inhibition [%]: 22.8
- Compound: "Cc1onc(-c2c(F)cccc2Cl)c1C(=O)c1ccc(F)cc1"
  inhibition [%]: 2
- Compound: "O=C(NCc1cccnc1)/C(=C\\c1ccc(-c2cccc(Cl)c2)o1)S(=O)(=O)c1ccccc1"
  inhibition [%]: 61.8
- Compound: "CCC(C)NC(=O)c1ccc2c(c1)N(Cc1ccccc1)C(=O)CS2 (stereo not drawn)"
  inhibition [%]: 7.12
- Compound: "Clc1ccc(-n2ncc3c(NCCN4CCOCC4)ncnc32)cc1"
  inhibition [%]: 28.4
- Compound: "O=C(Cc1cccs1)N/N=C\\c1ccc([N+](=O)[O-])s1"
  inhibition [%]: 12.1
- Compound: "Cc1ccccc1C(=O)O/N=C/c1c(N2CCOCC2)n(C)c2ccccc12"
  inhibition [%]: 76.4
- Compound: "CN(C(=O)c1cccc(NC(=O)Cc2ccc(NC(=O)C3CCCN(C(=O)CCc4ccccc4)C3)cc2)c1)C1CCCCC1 (stereo not drawn)"
  inhibition [%]: 24.3
- Compound: "Cc1ccc(-n2c(-c3ccc(Br)cc3)c[n+]3c2CCc2ccc4cccnc4c2-3)cc1"
  inhibition [%]: 83.8
- Compound: "CC(C)n1c(SCC(=O)Nc2ccc(N3CCOCC3)cc2)nnc1-c1ccco1"
  inhibition [%]: 4.53
- Compound: "O=C(NCCN1CCOCC1)c1ccc2c(c1)N(Cc1ccccc1F)C(=O)CS2"
  inhibition [%]: 11.1
- Compound: "CCOc1ccc(CCNC(=O)COC(=O)c2cc(S(=O)(=O)N3CCOCC3)ccc2F)cc1OCC"
  inhibition [%]: 5.25
- Compound: "COc1ccc(C2=Nn3c(nnc3-c3ccccc3OC)SC2)cc1OC1CCOC1 (stereo not drawn)"
  inhibition [%]: 54.4
- Compound: "c1ccc(-c2cccc(-c3ccccn3)n2)nc1"
  inhibition [%]: 82.3
- Compound: "CC(=O)Oc1ccc(-c2ccc(C(=O)Nc3cccc(S(=O)(=O)N4CCOCC4)c3)cc2)cc1"
  inhibition [%]: 25.5
- Compound: "COc1ccccc1-n1nnnc1S(=O)(=O)Cc1ccc(Cl)cc1"
  inhibition [%]: 41.7
- Compound: "COc1ccc2cc3c(N)nn(C(=O)Cc4c[nH]c5ccccc45)c3nc2c1"
  inhibition [%]: 51.1
- Compound: "Cc1cc([N+](=O)[O-])nn1Cc1ccc(C(=O)N/N=C/c2ccc(O)cc2O)cc1"
  inhibition [%]: 80.8

Numbers sourced from PubChem BioAssay.
